System: HEK293
Assay: Antiproliferative activity against human HEK293 cells measured after 72 hrs by MTT assay
Format: cell-based
Details: HEK293, 72 h
hey, just use criterion met if measured IC50 is less than 10 µM, otherwise criterion not met

{"molecule": "COc1cc(NC(C)CCCNC(=O)CCCCCC(=O)NCCCC(C)Nc2cc(OC)cc3cccnc23)c2ncccc2c1 (stereo not given)", "class": "criterion not met"}
{"molecule": "COc1cc(NC(C)CCCNC(=O)/C=C\\C(=O)NCCCC(C)Nc2cc(OC)cc3cccnc23)c2ncccc2c1 (stereo not given)", "class": "criterion not met"}
{"molecule": "COc1cc(NC(C)CCCNC(=O)/C=C/C(=O)NCCCC(C)Nc2cc(OC)cc3cccnc23)c2ncccc2c1 (stereo not given)", "class": "criterion not met"}
{"molecule": "COc1cc(NC(C)CCCNC(=O)CCCC(=O)NCCCC(C)Nc2cc(OC)cc3cccnc23)c2ncccc2c1 (stereo not given)", "class": "criterion not met"}
{"molecule": "COc1cc(NC(C)CCCNC(=O)CCC(=O)NCCCC(C)Nc2cc(OC)cc3cccnc23)c2ncccc2c1 (stereo not given)", "class": "criterion met"}
{"molecule": "COc1cc(NC(C)CCCN)c2ncccc2c1 (stereo not given) [PRIMAQUINE PHOSPHATE]", "class": "criterion not met"}
{"molecule": "COc1cc(NC(C)CCCNC(=O)CCCCCCC(=O)NCCCC(C)Nc2cc(OC)cc3cccnc23)c2ncccc2c1 (stereo not given)", "class": "criterion not met"}
{"molecule": "COc1cc(NC(C)CCCNC(=O)CCCCC(=O)NCCCC(C)Nc2cc(OC)cc3cccnc23)c2ncccc2c1 (stereo not given)", "class": "criterion not met"}
{"molecule": "COc1cccc2c1C(=O)c1c(O)c3c(c(O)c1C2=O)C[C@@](O)(C(=O)CO)C[C@@H]3O[C@H]1C[C@H](N)[C@H](O)[C@H](C)O1 [DOXORUBICIN]", "class": "criterion met"}
